Taken from patent US8921267B2.

System: wheat (Triticum aestivum L; TRZAW)
assay_summary: Postemergence herbicidal safening, greenhouse, visual injury: wheat (TRZAW)
Format: in vivo
setup_conditions: safener 8.8 g/ha alone
measure_name: TRZAW Ob (Observed values) (%)
Please give a number only; it is taken to be in %.

CC1COc2ccccc2N1C(=O)C(Cl)Cl (racemic) [Benoxacor, reference compound] :: 0

C=CCN(CC=C)C(=O)C(Cl)Cl [Dichlormid, N,N-diallyl-2,2-dichloroacetamide, reference compound] yielded TRZAW Ob (Observed values) of 0

O=C(C(Cl)Cl)N1CCOC12CCCCC2 [AD-67] yielded TRZAW Ob (Observed values) of 0

O=C(O)C1=NOC(c2ccccc2)(c2ccccc2)C1 [Isoxadifen] yielded TRZAW Ob (Observed values) of 0

NC(=O)NS(=O)(=O)c1ccccc1Cl [Compound 2-CBSU, reference compound] yielded TRZAW Ob (Observed values) of 0

CCOC(=O)C1=NN(c2ccc(Cl)cc2Cl)C(C)(C(=O)OCC)C1 (stereo not drawn) [Mefenpyr-diethyl] yielded TRZAW Ob (Observed values) of 0
